Test: Terminal half life in Sprague-Dawley rat at 10 mg/kg, po
Assay type: ADME, organism-based
Conditions: in vivo, read-out: beta t1/2 (converted)
attributeMeasured: half-life (h)
Express your answer in h, writing the number without its unit.

Solved entries:
{"smi": "COc1c(C)cc(Nc2nccc(-n3cc(C)c(CN4CC(O)C4)c3)n2)cc1C", "attributeMeasured": "half-life", "unitOfMeasurement": "h", "testValue": 1.2}
{"smi": "Cc1nn(-c2ccnc(Nc3ccc4c(c3)c(C)c(C)n4C)n2)cc1CN1CC(O)C1", "attributeMeasured": "half-life", "unitOfMeasurement": "h", "testValue": 3.4}
{"smi": "Cc1nn(-c2ccnc(Nc3ccc4c(c3)c(Cl)c(C)n4C)n2)cc1CN1CC(O)C1", "attributeMeasured": "half-life", "unitOfMeasurement": "h", "testValue": 3.6}

# get_value(readout='half-life', item= `Cc1cc(C)cc(Nc2nccc(-n3cc(C)c(CN4CC[C@@H](O)C4)c3)n2)c1` ) 2.6

---

Target: Tyrosine-protein kinase SYK (Homo sapiens, UniProt P43405)
Assay: Inhibition of purified full-length human SYK pre-incubated for 30 mins at room temperature before Ulight-TK peptide substrate addition and measured 1 hr after substrate addition by cell free kinase assay
attributeMeasured: log10(IC50) (log10 of the value in nM)
Response schema: value (number) is log10 of IC50 in units of nM.

{"smi": "Cc1cc(C)cc(Nc2nccc(-n3cc(C)c(CN4CCC(F)(F)CC4)c3)n2)c1", "testSystem": "Tyrosine-protein kinase SYK (Homo sapiens, UniProt P43405)", "testValue": 2.49}
{"smi": "Cc1cn(-c2ccnc(Nc3cc(C)c(OS(C)(=O)=O)c(C)c3)n2)cc1CN1CC(O)C1", "testSystem": "Tyrosine-protein kinase SYK (Homo sapiens, UniProt P43405)", "testValue": 0.80}
{"smi": "Cc1cc(C)cc(Nc2nccc(-n3cc(C)c(CN4CC[C@@H](N)C4)c3)n2)c1", "testSystem": "Tyrosine-protein kinase SYK (Homo sapiens, UniProt P43405)", "testValue": 1.12}
{"smi": "Cc1cc(C)cc(Nc2nccc(-n3cc(CN4CC(O)C4)c(C)n3)n2)c1", "testSystem": "Tyrosine-protein kinase SYK (Homo sapiens, UniProt P43405)", "testValue": 0.86}

Query log10(IC50) on Tyrosine-protein kinase SYK (Homo sapiens, UniProt P43405) for `COc1c(C)cc(Nc2nccc(-n3cc(C)c(CN4CC(O)C4)c3)n2)cc1C` 0.76

---

Assay: Oral bioavailability in Sprague-Dawley rat at 10 mg/kg
Assay type: ADME, organism-based
Settings: in vivo
attributeMeasured: bioavailability (%)
Express your answer in %, writing the number without its unit.

Solved entries:
{"smi": "Cc1nn(-c2ccnc(Nc3ccc4c(c3)c(C)c(C)n4C)n2)cc1CN1CC(O)C1", "bioavailability / %": 61}
{"smi": "COc1c(C)cc(Nc2nccc(-n3cc(C)c(CN4CC(O)C4)c3)n2)cc1C", "bioavailability / %": 7.8}
{"smi": "Cc1cc(C)cc(Nc2nccc(-n3cc(C)c(CN4CC[C@@H](O)C4)c3)n2)c1", "bioavailability / %": 7.6}

Read the next record carefully.
# get_value(readout='bioavailability', item= `Cc1nn(-c2ccnc(Nc3ccc4c(c3)c(Cl)c(C)n4C)n2)cc1CN1CC(O)C1` ) 28.4
